Target: Recombinant Human Siglec-3/CD33 protein (His-CD33) (Homo sapiens (Human))
Sequence (P20138 18-259): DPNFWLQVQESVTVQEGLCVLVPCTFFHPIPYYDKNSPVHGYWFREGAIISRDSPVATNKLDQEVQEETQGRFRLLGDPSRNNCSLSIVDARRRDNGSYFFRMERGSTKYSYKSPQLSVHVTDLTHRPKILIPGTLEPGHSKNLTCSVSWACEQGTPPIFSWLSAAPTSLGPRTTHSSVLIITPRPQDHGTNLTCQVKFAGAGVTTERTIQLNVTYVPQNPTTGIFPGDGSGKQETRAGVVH
Assay: Differential scanning fluorimetry (DSF) thermal shift assay
Format: binding
Conditions: difference in thermal melt of CD33 protein (0.5 μM) with 50 μM compound
endpoint.label: DSF (dTmD) (°C)

molecule	target.of.assay	endpoint.label	uom	numeric.result
CC(=O)N[C@H]1[C@H]([C@H](O)[C@H](O)CNC(=O)c2cc(C)c(O)c(C)c2)O[C@@](C/C=C/c2cccc(CN(C)C(=O)C3CCCOC3)c2)(C(=O)O)C[C@@H]1O (some centres unmarked) [A-292]	Recombinant Human Siglec-3/CD33 protein (His-CD33) (Homo sapiens (Human))	DSF (dTmD)	°C	4.0
Cc1cc(C(=O)NC[C@@H](O)[C@@H](O)[C@@H]2O[C@@](C/C=C/c3cccc(CNC(=O)c4ccn(-c5ccccn5)n4)c3)(C(=O)O)C[C@H](O)[C@H]2NC(=O)Cn2cc(C3CCCCC3)nn2)cc(C)c1O [A-275]	Recombinant Human Siglec-3/CD33 protein (His-CD33) (Homo sapiens (Human))	DSF (dTmD)	°C	7.0

[I] Cc1cc(C(=O)NC[C@@H](O)[C@@H](O)[C@H]2C[C@@H](O)C[C@](CCN3CCOC[C@@]34CCN(C(=O)OC(C)(C)C)C4)(C(=O)O)O2)cc(C)c1O [A-202]
[II] CC(=O)N[C@H]1[C@H]([C@H](O)[C@H](O)CNC(=O)c2cc(C)c(O)c(C)c2)O[C@@](CCN2CCOC[C@@]23CCN(C(=O)OC(C)(C)C)C3)(C(=O)O)C[C@]1(C)O [A-200]
Qu. // which entry reports the smaller DSF (dTmD), I or II ? Pick one; state its label.
Ans. I
(I: 5.46 °C, II: 8.7 °C)
